We begin with a simple list: items and their reported Ki.
target: Cannabinoid receptor 2 (Homo sapiens)
Sequence (P34972 whole entry): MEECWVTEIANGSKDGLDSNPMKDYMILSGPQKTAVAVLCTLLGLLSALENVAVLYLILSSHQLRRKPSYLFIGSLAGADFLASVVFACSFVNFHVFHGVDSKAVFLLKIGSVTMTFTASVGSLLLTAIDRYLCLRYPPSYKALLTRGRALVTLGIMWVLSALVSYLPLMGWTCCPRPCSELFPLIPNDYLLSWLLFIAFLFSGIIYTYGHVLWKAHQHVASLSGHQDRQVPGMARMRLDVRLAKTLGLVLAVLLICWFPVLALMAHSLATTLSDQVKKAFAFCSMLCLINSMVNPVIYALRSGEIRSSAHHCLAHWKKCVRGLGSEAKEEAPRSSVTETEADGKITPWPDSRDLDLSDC
Output spec: scalar in µM, unitless text.

INSERT INTO results (molecule, systemundertest, measure, readingunit, recordedmeasurement) VALUES
  ('CN(C)C(CNC(=O)C1(Cc2ccccc2)CCCCC1)c1cccs1 (stereo not drawn)', 'Cannabinoid receptor 2 (Homo sapiens)', 'Ki', 'µM', 71.4);

In: Would you kindly share the measured Ki for Cc1cc(C)c(CNC(=O)c2cc3c(C)nn(Cc4ccc(F)cc4)c3s2)c(=O)[nH]1 ?
Out: 0.143

In: And then CCC(CC)S(=O)(=O)c1cccc(-c2nnc(SCCN(C)C)n2C2CCCCCC2)c1 , what is it?
Out: 9.27

In: And then CCCn1c(SCC(=O)NCC2COc3ccccc3O2)nc2sc3c(c2c1=O)CCC3 (stereo not drawn) , what is it?
Out: 60.9

In: And then c1ccc2c(c1)CCCC2Nc1nc(CN2CCCCC2)nc2sc3c(c12)CCCC3 (stereo not drawn) , what is it?
Out: 4.78

In: And then C#CN1CCC2=C(C1)c1c(O)cc(C(C)C(C)CCCCC)cc1OC2(C)C (stereo not drawn) , what is it?
Out: 0.0023

In: And then CC1=CC(C(=O)CN2C(=O)NC(C)(c3ccc(F)cc3)C2=O)=C(C)C1CCc1cccs1 (stereo not drawn) , what is it?
Out: 36.9

In: And then COc1ccc(CN2CCCn3c4c(c5cc(C)ccc53)CCCC42)cc1O (stereo not drawn) , what is it?
Out: 2.36
